Assay: in vitro
Parameters: species or system CCD841, HEK293
Conditions: human, hb2 cells, read-out: HB-2 Cells Viability (%)
Param label: returns label 1 when viability at 48 h, 10 µM < 60%, returns label 0 otherwise, including exact equality.

Just wondering, is viability at 48 h, 10 µM of O=C(CCl)Nc1ccc(F)c(Cl)c1 below 60%?
label 1

Request: O=C(CCl)N1c2ccccc2OCC1c1ccccc1 (centres unmarked)
label 1

Request: O=C(CCl)Nc1ccccc1N1CCCC1=O
label 0

Request: C=CC(=O)N=C1N=C2C=CC(I)=CN2Cc2ccccc21
label 0

Request: O=C(CCl)N1CCN(C(=O)c2cccs2)CC1
label 1

Request: O=C(CCl)Nc1ccc(F)c([N+](=O)[O-])c1
label 1

Request: COc1ccccc1C(=O)NC(=O)CCl
label 0

Request: Cc1oc(NC(=O)CCl)c(C#N)c1C
label 1

Request: O=C(CCl)NC(=O)Nc1ccc2c(c1)OCCO2
label 0

Request: Cc1cc(NC(=O)CCl)ccc1N1CCCC1
label 1

Request: CC(NC(=O)CCl)c1ccc(Cl)c(Cl)c1 (centres unmarked)
label 1

Request: O=C(CCl)NCC1COc2ccccc2O1 (centres unmarked)
label 0

Request: COc1cccc2sc(NC(=O)CCl)nc12.Cl
label 1

Request: O=C(CCl)N1CCCCC1
label 0

Request: C=CC(=O)N1Cc2ccccc2CC1c1nnc(CC)o1 (centres unmarked)
label 0

Request: Cc1ccc(NC(=O)CCl)cc1
label 1

Request: C=CC(=O)N1CCN(C(=O)Nc2ccc(C)c(Cl)c2)CC1
label 0

Request: Cl.O=C(CCl)N1CCN(Cc2cccc(Cl)c2)CC1
label 1

Request: Cn1cccc1C(=O)NC(=O)CCl
label 0

Request: NC(=O)c1c(NC(=O)CCl)sc2c1CCC2
label 1

Request: CC(C)(C)NC(=O)CN1CCN(C(=O)CCl)CC1.Cl
label 0

Request: Cc1sc2nc(-c3cccc(NC(=O)CCl)c3)[nH]c(=O)c2c1C
label 0

* * *

What OTUB2 was measured for each of the following?
Target: OTUB2 (OTUB2A) (Homo sapiens)
Construct: full length residues 1-234, E. coli BL21(DE3)-R3, His tag removed by TEV, construct 27312 Da
Sequence (Q96DC9 whole entry, the tested form may be a part): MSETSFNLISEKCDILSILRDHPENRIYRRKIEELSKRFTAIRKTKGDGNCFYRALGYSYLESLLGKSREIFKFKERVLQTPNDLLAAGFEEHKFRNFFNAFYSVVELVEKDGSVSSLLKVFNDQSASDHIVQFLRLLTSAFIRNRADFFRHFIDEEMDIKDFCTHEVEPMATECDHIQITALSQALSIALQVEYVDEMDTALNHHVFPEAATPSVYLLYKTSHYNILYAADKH
Design: Intact protein LC/MS covalent labelling, fragments in pools of five, 200 uM each, 4 °C
Conditions: 24 h, 4 °C, pool of five; 200 µM; covalent
Reply: number alone, nothing else.

Return reported OTUB2; argument: C=CC(=O)Nc1ccccc1OC [PCM-0102493]
0

Request: CC1CCCCC1N(C)C(=O)CCl (stereo not drawn) [PCM-0103026]
0

Request: O=C(CCl)N1CCN(Cc2ccccc2)C1=O [PCM-0102919]
0.1

Request: CC(NC(=O)CCl)c1ccccc1 (stereo not drawn) [PCM-0102128]
0.42

Request: Cc1c(C#N)c(NC(=O)CCl)n(-c2ccc(F)cc2)c1C [PCM-0102099]
0

Request: C=CC(=O)Nc1ccc(F)cc1 [PCM-0102111]
0

Request: CN(CC1CC1)C(=O)CCl [PCM-0102714]
0

Request: C=CC(=O)N1CCN(C)CC1 [PCM-0102634]
0

Request: C=CC(=O)Nc1ccc(OC)c(F)c1 [PCM-0102995]
0

Request: O=C(CCl)NNC(=O)c1ccc(F)cc1 [PCM-0102430]
0.31

Request: C=CC(=O)N=C1N=C2C=CC(I)=CN2Cc2ccccc21 [PCM-0102846]
0

Request: O=C(CCl)Nc1cc(Cl)ccc1-n1cncn1 [PCM-0102258]
0

Request: O=C(CCl)NC1CCOCC1 [PCM-0103045]
0

Request: CC(C)(C)C(NC(=O)CCl)c1cccs1 (stereo not drawn) [PCM-0102773]
0

Request: O=C(CCl)NC(=O)Nc1ccc2c(c1)OCCO2 [PCM-0102614]
0.27

Request: CCC1(C)NC(=O)N(NC(=O)CCl)C1=O (stereo not drawn) [PCM-0102205]
0

Request: CC(NC(=O)CCl)c1ccc2c(c1)OCCO2 (stereo not drawn) [PCM-0102342]
0.57

Request: O=C(CCl)NC1C2CC3CC(C2)CC1C3 (stereo not drawn) [PCM-0102404]
0.33

Request: O=C(CCl)Nc1cc([N+](=O)[O-])ccc1Cl [PCM-0102366]
0.27

Request: COc1ccc(C2CCCN2C(=O)CCl)cc1 (stereo not drawn) [PCM-0102938]
0

Request: CN(Cc1ccccc1)C(=O)CCl [PCM-0102984]
0

Request: C=CC(=O)N1CCC2(CCc3ccccc3O2)C1 (stereo not drawn) [PCM-0103025]
0.2

Request: CC(NC(=O)CCl)c1cccc(Cl)c1 (stereo not drawn) [PCM-0102190]
0.37

Request: N#CC1(NC(=O)CCl)CCC1 [PCM-0102854]
0

Data provenance is paper PMC6556873.
